target.desc: CCKB receptor (Mus musculus)
Construct: The whole brains from male mice (CD1 22-25 g; Charles River) were removed; from tissue; host or cells: cerebral cortex membranes of male CD1 mice
Sequence (P56481 whole entry): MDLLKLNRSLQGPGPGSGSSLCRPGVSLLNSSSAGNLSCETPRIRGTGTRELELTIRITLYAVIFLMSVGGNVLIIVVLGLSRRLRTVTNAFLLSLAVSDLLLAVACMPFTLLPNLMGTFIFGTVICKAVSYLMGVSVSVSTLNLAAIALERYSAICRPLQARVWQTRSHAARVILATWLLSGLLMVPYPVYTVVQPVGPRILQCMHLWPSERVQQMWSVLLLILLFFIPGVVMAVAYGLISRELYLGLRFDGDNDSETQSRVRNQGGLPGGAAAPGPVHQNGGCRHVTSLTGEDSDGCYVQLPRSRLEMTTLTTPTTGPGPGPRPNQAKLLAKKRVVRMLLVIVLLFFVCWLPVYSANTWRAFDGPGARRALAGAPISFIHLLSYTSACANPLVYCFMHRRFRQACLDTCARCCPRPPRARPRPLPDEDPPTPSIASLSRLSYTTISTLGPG
experimental.protocol: CCKB receptor radioligand binding assay in mouse cortical membranes
run.parameters: [125I]-CCK8(S) 200 pM, 150 min at 21±3°, read-out: CCKB pKi (converted)
I'd be grateful if you could share measured Ki for these entries.
Quick note: unit goes after the number.

Answered cases to consult:
>>> result("O=C(O)c1cc(NC(=O)c2cc(-c3ccccc3)[nH]c2CC23CC4CC(CC(C4)C2)C3)cc(C(=O)O)c1 [Example 1]")
"0.191 µM"
>>> result("O=C(O)c1cccc(NC(=O)c2nc(-c3ccccc3F)[nH]c2CCC2CCCCCC2)c1 [Example 43]")
"0.851 µM"
>>> result("O=C(O)c1cccc(NC(=O)c2nc(-c3cnc[nH]3)[nH]c2CCC23CC4CC(CC(C4)C2)C3)c1 [Example 110]")
"0.339 µM"

Next:
Test system CCKB receptor (Mus musculus); read-out Ki; what value for Cc1ccccc1-c1nc(CCC23CC4CC(CC(C4)C2)C3)c(C(=O)Nc2ccc(N(C)C)c(C(=O)O)c2)[nH]1 [Example 242] ?
0.324 µM

* * *

target.desc: gastrin receptor (Rattus norvegicus)
Construct: The stomach was excised and flushed with ca. 1 ml of unbuffered physiological saline solution; from tissue; host or cells: isolated whole stomach of immature rats (ca. 21 days old)
experimental.protocol: gastrin antagonist activity in immature rat stomach assay (pentagastrin dose-response, acid secretion)
run.parameters: isolated immature rat stomach, cumulative pentagastrin dose-response curves, read-out: Gastrin pKb (converted)
Counter-ions that a name gives are not always drawn.
Think of 30 nM as a floor: if Kb stands on it or above, it is true (1); beneath it, false (0).

>>> class_label("CC(C)C1CCC(c2nc(C(=O)Nc3cccc(C(=O)O)c3)c(CCC34CC5CC(CC(C5)C3)C4)[nH]2)CC1 (stereo not shown)")
"true (1)"
>>> class_label("Cc1ccccc1-c1nc(C(=O)Nc2ccc(N)c(C(=O)O)c2)c(CCC23CC4CC(CC(C4)C2)C3)[nH]1 [Example 241, Dihydrochloride]")
"true (1)"
>>> class_label("CC1=C(Cc2nc(C(=O)Nc3cccc(C(=O)O)c3)c(CCC34CC5CC(CC(C5)C3)C4)[nH]2)C(C)(C)CCC1")
"false (0)"
>>> class_label("O=C(Cc1cccc(NC(=O)c2nc(C3CCCCC3)[nH]c2COC23CC4CC(CC(C4)C2)C3)c1)NO")
"true (1)"
>>> class_label("O=C(O)C=Cc1cc(NC(=O)c2nc(C3CCCCC3)[nH]c2CCC23CC4CC(CC(C4)C2)C3)ccc1Cl")
"true (1)"
>>> class_label("O=C(O)c1cccc(NC(=O)c2nc([C@@H]3CC4C=C[C@H]3C4)[nH]c2COC23CC4CC(CC(C4)C2)C3)c1")
"false (0)"

# ---- query molecule ----
// inclusive: Kb at least 30 nM? input: `CCC(CC)c1nc(C(=O)Nc2ccc(C)c(C(=O)O)c2)c(CCC23CC4CC(CC(C4)C2)C3)[nH]1`
false (0)

* * *

target.desc: gastrin receptor (Rattus norvegicus, UniProt P30553)
Construct: The stomach was excised and flushed with ca. 1 ml of unbuffered physiological saline solution; from tissue; host or cells: isolated whole stomach of immature rats (ca. 21 days old)
Sequence (P30553 whole entry): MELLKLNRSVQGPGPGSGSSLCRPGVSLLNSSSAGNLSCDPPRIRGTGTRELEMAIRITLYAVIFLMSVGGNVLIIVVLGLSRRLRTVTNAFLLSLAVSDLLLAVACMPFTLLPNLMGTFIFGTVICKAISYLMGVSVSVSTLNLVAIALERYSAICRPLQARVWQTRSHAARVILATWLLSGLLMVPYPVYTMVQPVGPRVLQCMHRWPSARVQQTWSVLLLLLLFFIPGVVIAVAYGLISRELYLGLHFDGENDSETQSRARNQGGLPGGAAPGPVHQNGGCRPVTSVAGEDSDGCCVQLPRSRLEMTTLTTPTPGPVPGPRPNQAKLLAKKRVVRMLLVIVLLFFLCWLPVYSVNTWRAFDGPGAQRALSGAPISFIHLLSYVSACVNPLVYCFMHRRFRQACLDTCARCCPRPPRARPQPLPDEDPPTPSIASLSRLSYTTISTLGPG
experimental.protocol: gastrin antagonist activity in immature rat stomach assay (pentagastrin dose-response, acid secretion)
run.parameters: isolated immature rat stomach, cumulative pentagastrin dose-response curves, read-out: Gastrin pKb (converted)
Classify as follows. Reported Kb greater than or equal to 50 nM: Condition met. Reported Kb below: Condition not met.

These solved cases illustrate the format of a correct answer.
>>> class_label("O=C(O)c1cccc(NC(=O)c2nc(CC3CCCCC3)[nH]c2CCC23CC4CC(CC(C4)C2)C3)c1")
"Condition not met"
>>> class_label("COCC(COC)c1nc(C(=O)Nc2cccc(C(=O)O)c2)c(CCC23CC4CC(CC(C4)C2)C3)[nH]1")
"Condition met"
>>> class_label("O=C(O)c1cc(NC(=O)c2[nH]c(-c3ccccc3)nc2CCC23CC4CC(CC(C4)C2)C3)cc(C(=O)O)c1")
"Condition met"

Hi, just wondering whether `Cn1c(C2CCCCC2)nc(C(=O)Nc2cccc(C(=O)O)c2)c1CCC12CC3CC(CC(C3)C1)C2` shows Kb of 50 nM or higher.
Condition not met

Decide: is the reported value of Kb for `CC1(CCc2[nH]c(C3CCCCC3)nc2C(=O)Nc2cccc(C(=O)O)c2)CCCCC1` equal to or greater than 50 nM?
Condition not met

Evaluate `CC(C)(C(=O)O)c1cccc(NC(=O)c2nc(C3CCCCC3)[nH]c2CCC23CC4CC(CC(C4)C2)C3)c1` : Kb at minimum 50 nM?
Condition met

Say whether `O=C(O)c1cccc(NC(=O)c2nc(-c3ccc(F)cc3)[nH]c2CCC23CC4CC(CC(C4)C2)C3)c1` shows Kb of 50 nM or more.
Condition met

Exam item: decide whether the reported Kb for `Cc1cc(C)c(-c2nc(C(=O)Nc3cccc(CC(=O)O)c3)c(COC34CC5CC(CC(C5)C3)C4)[nH]2)c(C)c1` is at least 50 nM.
Condition met
